Test system: SEM cells
procedure_text: cell viability relative to DMSO control; higher = less cytotoxic
test_settings: RPMI 5 mM glucose + 10% FBS; 48 h; 0.569 µM
reported_metric: cell viability (%)
Could you give me the number in %? Just the number is fine.

>>> print(df.to_string())
                                   molecule  reported_metric  value_units  test_value
0  CN(C)CCCC1(c2ccc(F)cc2)OCc2cc(C#N)ccc21 (stereo unspecified)   cell viability            %        82.4
1  CC(C)(N)C(=O)N[C@H](COCc1ccccc1)C(=O)N1CCC2(CC1)CN([S+](C)(=O)[O-])c1ccccc12   cell viability            %         139
2  Cc1ccc(C(=O)Nc2cccc(C(F)(F)F)c2)cc1Nc1nc(-c2cccnc2)nc2c1cnn2C   cell viability            %          83
3  CC1(C)SCCN([S+](=O)([O-])c2ccc(OCC#CCO)cc2)[C@H]1C(=O)NO   cell viability            %         105
4                O=C(O)CCCCCC(=O)NN=C1CCCC1   cell viability            %         114

Please find the next molecule below.
Fill in the blank: the reported cell viability of Nc1nc(F)nc2c1ncn2[C@@H]1O[C@H](COP(=O)(O)O)[C@@H](O)[C@@H]1O is ____.
128

* * *

Test system: P12-Ichikawa
procedure_text: AUC of viability dose-response curve (% viability x log10 dose units); higher = less sensitive
test_settings: RPMI 5 mM glucose + 10% FBS; 48 h
reported_metric: AUC of viability dose-response curve
Reply with just the number.

                         structure_notation                       reported_metric  test_value
0  N#C/C(=C(/N)Sc1ccc(N)cc1)c1ccccc1C(F)(F)F  AUC of viability dose-response curve         417

Can you look up the measured AUC of viability dose-response curve of O=C(O)c1ccc(O)c2ncc(N3CCOCC3)cc12 for me?
431

Need AUC of viability dose-response curve of CC1(C)CC\C2=C(/O1)C3=C(C=CC=C3)C(=O)C2=O , thanks.
447

* * *

Tested on: P12-Ichikawa
procedure_text: cell viability relative to DMSO control; higher = less cytotoxic
test_settings: RPMI 5 mM glucose + 10% FBS; 48 h; 1.71 µM
reported_metric: cell viability (%)
Provide the reading as a plain figure in %.

In the examples that follow, each entry is paired with its recorded cell viability.
>>> print(df.to_string())
                         structure_notation  subject_of_test  reported_metric  test_value
0  Oc1cc(-c2nc(-c3ccccc3)[nH]c2-c2ccncc2)ccc1Cl     P12-Ichikawa   cell viability         113
1  COc1cc(C(=O)NC2CCN(C)CC2)ccc1Nc1ncc2c(n1)N(C1CCCC1)CCC(=O)N2C(C)C     P12-Ichikawa   cell viability         114
2  CN1C(=O)/C(=C(NC2=CC=C(I)C=C2F)\C3=C1\N=C/N(C[C@@H](O)CO)C3=O)F     P12-Ichikawa   cell viability        70.4

Which cell viability value is on record for O=C(O)c1ccc(O)c2ncc(N3CCOCC3)cc12 ?
94.2

Which cell viability is listed for Cc1cc(Nc2ncc3c(n2)N(C)C(=O)N(c2cc(NC(=O)c4cccc(C(F)(F)F)c4)ccc2C)C3)n(C)n1 ?
73.5

GET /values?readout=cell viability&item= O=C(O)CCCCCC(=O)NN=C1CCCC1
120
